This collection of values is drawn from patent US12479858B2.

# Assay Name: Plasma and tumor compound concentrations in CT26 tumor-bearing mice (LC-MS/MS)
# Assay type: in vivo, BALB/c mice
# Assay Conditions: BALB/c, mouse, plasma, intravenous; 0.093 mg/kg single i.v., 3.5 h; read-out: Plasma Conc.
Counter-ions that a name gives are not always drawn.

>  <Compound>
CCn1nc(C)cc1C(=O)Nc1nc2cc(C(N)=O)cc3c2n1C/C=C/Cn1c(NC(=O)c2cc(C)nn2CC)nc2cc(C(=O)N[C@H]4CC[C@H](C(=O)O)CC4)cc(c21)OCCCO3 [Compound 2, sodium salt]

>  <concentration at 3.5 h / nM>
110

$$$$

----------
# Assay Name: Plasma and tumor compound concentrations in CT26 tumor-bearing mice (LC-MS/MS)
# Assay type: in vivo, BALB/c mice
# Assay Conditions: BALB/c, mouse, tumor, intravenous; 0.187 mg/kg single i.v., 3.5 h; read-out: Tumor Conc.
Counter-ions that a name gives are not always drawn.

>  <Compound>
CCn1nc(C)cc1C(=O)Nc1nc2cc(C(N)=O)cc3c2n1C/C=C/Cn1c(NC(=O)c2cc(C)nn2CC)nc2cc(C(=O)N[C@H]4CC[C@H](C(=O)O)CC4)cc(c21)OCCCO3 [Compound 2, sodium salt]

>  <concentration at 3.5 h [nM]>
90

$$$$
